Tested on: RAW264.7
Assay Remarks: Modulation of M1 polarization in mouse RAW264.7 cells assessed as change in Mcp1 mRNA expression at 300 nM measured after 24 hrs by qRT-PCR analysis relative to control
Format: functional, cell-based
Stated Conditions: RAW264.7, 24 h, read-out: FC
// reported fold induction at 0.3 µM for each item listed
Reply briefly: the number, and no unit.

Below: 3 compounds and their reported fold induction at 0.3 µM.
Smiles Repr: Cl.Cn1ncc(Br)c1-c1ccc(C(=O)N[C@@H]2CNCC[C@H]2c2cccc(F)c2)cc1Cl
fold induction at 0.3 µM: 2.05

Smiles Repr: CCN(CC)C(=O)c1ccc(-c2ccnn2C)cc1F
fold induction at 0.3 µM: 1.97

Smiles Repr: Cn1nccc1-c1ccc(C(=O)Nc2ccc(F)cc2)c(F)c1
fold induction at 0.3 µM: 2.01

q: Value lookup for fold induction at 0.3 µM; key = Cl.Cn1nccc1C(=O)N[C@@H]1CNCC[C@H]1c1cccc(F)c1
a: 2.05

q: Requested read-out: fold induction at 0.3 µM. Entry: Cn1nccc1C(=O)N1C[C@@H](c2cc(F)cc(F)c2)[C@@H]2[C@H]1C1CCN2CC1
a: 1.95
